# Assay procedure: qHTS of pediatric cancer cell lines to identify multiple opportunities for drug repurposing: Primary screen for RD cells (AID 1347104); note: nearly all actives have a fitted effect of over 55% in size
# Condition context: RD rhabdomyosarcoma viability, CellTiter-Glo luminescence, 48 h; series mostly up to 46 µM
# Description: Drug repurposing or repositioning has been offered as a strategy for drug development in oncology programs. This approach has special potential for childhood cancers and other rare or orphan diseases, where the expected return on new drug development has been a disincentive to pharmaceuticals. […] We employed a titration-based paradigm (quantitative high-throughput screening or qHTS), where all compounds were tested at multiple concentrations for their effect on cell viability. […]
Inconclusive results are not listed. Calls of active or inactive are those of the source. Calls come from the whole dose curve; as a rule, active = well fitted cell-killing curve with a large enough effect; inconclusive = small, poorly fitted or top-dose-only effect; inactive = flat fitted curve, though single readings scatter.
One label from this list, please: 1 (yes) = active, 0 (no) = inactive

Qu. Entry `O=C(O)Cc1ccc(OCCNC[C@H](O)c2ccccc2)cc1` : call = ?
Ans. 0 (no)

Qu. Another compound: `O=C1NCCN1CCN1CCC(c2cn(-c3ccc(F)cc3)c3ccc(Cl)cc23)CC1`
Ans. 1 (yes)

Qu. Another compound: `O=C(c1cc(O)c(O)c(O)c1)c1ccc(O)c(O)c1O`
Ans. 0 (no)

Qu. Another compound: `CSCC[C@H](NC(=O)[C@H](Cc1c[nH]c2ccccc12)NC(=O)CCNC(=O)OC(C)(C)C)C(=O)N[C@@H](CC(=O)O)C(=O)N[C@@H](Cc1ccccc1)C(N)=O`
Ans. 0 (no)

Qu. Another compound: COc1ccccc1OCC1CNC(=O)O1 (stereo not given)
Ans. 0 (no)

Qu. Another compound: `CCOC(=O)NNc1nncc2ccccc12`
Ans. 0 (no)

Qu. Another compound: `CC1(C)O[C@@H]2C[C@H]3[C@@H]4CCC5=CC(=O)C=C[C@]5(C)[C@@]4(F)[C@@H](O)C[C@]3(C)[C@]2(C(=O)CO)O1`
Ans. 0 (no)

Qu. Another compound: CCCCC/C=C\C/C=C\CCCCCCCC(=O)NC(C)c1ccccc1 (stereo not given)
Ans. 0 (no)

Qu. Another compound: `O=C(O)c1[nH]n(-c2ccc(S(=O)(=O)O)cc2)c(=O)c1N=Nc1ccc(S(=O)(=O)O)cc1`
Ans. 0 (no)

Qu. Another compound: `CCCCCCCCCCCCCC[N+](C)(C)C`
Ans. 1 (yes)

Qu. Another compound: `CC(=O)OC/C=C(C)/C=C/C=C(C)/C=C/C1=C(C)CCCC1(C)C`
Ans. 0 (no)

Qu. Another compound: `O=C(CCCl)NCCc1ccccc1`
Ans. 0 (no)

Qu. Another compound: CC(C)(C)C(=O)OCOC(=O)C1N2C(=O)CC2S(=O)(=O)C1(C)C (stereo not given)
Ans. 0 (no)

Qu. Another compound: `CC(=O)[C@H]1CC[C@H]2[C@@H]3C=CC4=CC(=O)CC[C@@]4(C)[C@@H]3CC[C@]12C`
Ans. 0 (no)

Qu. Another compound: CO[C@@H]1[C@@H](OC)[C@H](C)[C@@](O)(CC(=O)O)O[C@H]1[C@H](C)[C@H]1O[C@@]2(CC[C@@](C)([C@H]3CC[C@@](C)([C@@H]4O[C@@H]([C@H]5O[C@](C)(O)[C@H](C)C[C@@H]5C)C[C@@H]4OC4C[C@H](OC)[C@@H](OC)[C@H](C)O4)O3)O2)C[C@H](O)[C@H]1C (stereo not given in full)
Ans. 1 (yes)

Qu. Another compound: `Cc1sccc1Br`
Ans. 0 (no)

Qu. Another compound: `CCN(CC)CC(=O)Nc1c(C)cccc1C(=O)OC`
Ans. 0 (no)

Qu. Another compound: `CO/N=C(/C(=O)N[C@@H]1C(=O)N2C(C(=O)OCOC(=O)C(C)(C)C)=C(C)CS[C@H]12)c1csc(N)n1`
Ans. 0 (no)

Qu. Another compound: `COC(=O)/C=C\C(=O)OC`
Ans. 0 (no)

Qu. Another compound: COc1ccccc1N1CCN(CC(O)COc2cc(OC)c(OC)c(OC)c2)CC1 (stereo not given)
Ans. 0 (no)

Qu. Another compound: `CC1(C)OC(=O)Nc2ccc(Br)cc21`
Ans. 0 (no)

Qu. Another compound: `CC(=O)[C@@]1(O)CC[C@H]2[C@@H]3C[C@H](C)C4=CC(=O)CC[C@]4(C)[C@H]3CC[C@@]21C`
Ans. 0 (no)

Qu. Another compound: `CCCCOCCOC(=O)c1cccnc1`
Ans. 0 (no)

Qu. Another compound: CC(C(=O)O)c1ccc(/C=C2\CCCCC2=O)cc1 (stereo not given)
Ans. 0 (no)

Qu. Another compound: CC[N+]1(CC)CCC(=C(c2ccccc2)c2ccccc2)C1C (stereo not given)
Ans. 0 (no)

Qu. Another compound: `Oc1cccc2[nH]ccc12`
Ans. 0 (no)

Qu. Another compound: `Cc1cccc(C)c1NC(=O)c1ccc(N)cc1`
Ans. 0 (no)

Qu. Another compound: `CCOC(=O)C(=O)c1csc(NC=O)n1`
Ans. 0 (no)

Qu. Another compound: `CSc1ccc(/C=C2/C(C)=C(CC(=O)O)c3cc(F)ccc32)cc1`
Ans. 0 (no)

Qu. Another compound: `O=c1[nH]c2ccccc2c(=O)n1CCCl`
Ans. 0 (no)

Qu. Another compound: `CCN(CC)CCN`
Ans. 0 (no)

Qu. Another compound: `CCOC(=O)c1ccc(NC(=O)CN2CCCCC2)cc1`
Ans. 0 (no)

Qu. Another compound: `Cc1nc2n(c(=O)c1CCN1CCC(C(=O)c3ccc(F)cc3)CC1)CCS2`
Ans. 0 (no)

Qu. Another compound: `CC(C)(c1ccc(O)cc1)c1ccc(O)cc1`
Ans. 0 (no)

Qu. Another compound: `CCN(CC)CC(=O)Oc1ccc(NC(C)=O)cc1`
Ans. 0 (no)

Qu. Another compound: `CCC(CN)=C(c1ccccc1)c1ccccc1`
Ans. 0 (no)

Qu. Another compound: `O=C(CCCCCCCCC#CI)Oc1ccccc1`
Ans. 0 (no)

Qu. Another compound: COC(=O)C1=C(C)NC(COC(N)=O)=C(C(=O)OC(C)C)C1c1cccc(Cl)c1Cl (stereo not given)
Ans. 0 (no)

Qu. Another compound: Nc1ccc(C(=O)OCC(O)CO)cc1 (stereo not given)
Ans. 0 (no)

Qu. Another compound: `OCCCc1ccccc1`
Ans. 0 (no)

Qu. Another compound: CC1CCCCN1CCCOC(=O)c1ccc(OC2CCCCC2)cc1 (stereo not given)
Ans. 0 (no)

Qu. Another compound: `O=C(c1ccco1)N1CCNCC1`
Ans. 0 (no)

Qu. Another compound: CCCCC(CC)COC(=O)c1ccccc1C(=O)O (stereo not given)
Ans. 0 (no)

Qu. Another compound: `CN1C(=O)c2ccccc2C1=O`
Ans. 0 (no)

Qu. Another compound: NC(=O)COCCN1CCN(C(c2ccccc2)c2ccc(Cl)cc2)CC1 (stereo not given)
Ans. 0 (no)
